Documented pIC50 across a set of compounds
Test system: CYP3A4
procedureText: in vitro
protocolConditions: microsomes
pIC50: −log10 of the molar value.
assayEndpoint: pIC50

>>> observedvalue("O=c1c(OC2O[C@H](CO)[C@@H](O)[C@H](O)[C@H]2O)c(-c2ccc(O)cc2)oc2cc(O)c(O)c(O)c12 (stereo partly drawn) [A6, 6-hydoxykaempferol-3-O-glucoside]")
4.58
>>> observedvalue("O=C(/C=C/c1ccc(O)cc1)C1=C(O)C2=C(O[C@H]([C@@H](O)[C@H](O)[C@H](O)CO)[C@H]2C2=C(O)/C(=C(O)/C=C/c3ccc(O)cc3)C(=O)C(O)([C@@H]3O[C@H](CO)[C@@H](O)[C@H](O)[C@H]3O)C2=O)C(O)([C@@H]2O[C@H](CO)[C@@H](O)[C@H](O)[C@H]2O)C1=O (stereo partly drawn) [A8, anhydroxysafflor yellow B]")
4.46
>>> observedvalue("O=c1c(O[C@@H]2O[C@H](CO)[C@@H](O)[C@H](O)[C@H]2O)c(-c2ccc(O)cc2)oc2cc(O)c(O[C@@H]3O[C@H](CO)[C@@H](O)[C@H](O)[C@H]3O)c(O)c12 [A13, 6-hydroxykaempferol-3,6-di-O-glucoside]")
4.23
